src = patent US6878707B2

recordedEndpoint: melting point

The compound listed as Cc1cccc(C(=O)Nc2ccc3c(c2)CC(N2CCN(C(=O)COCc4ccccc4)CC2)C3)c1-c1ccc(C(F)(F)F)cc1 (stereo not shown) shows melting point equal to 160 to 161 °C

The compound listed as COC(=O)N1CCN(C2Cc3ccc(NC(=O)c4ccccc4-c4ccccc4)cc3C2)CC1 (stereo not shown) shows melting point equal to 164 to 168 °C

The compound listed as Cc1cccc(C(=O)Nc2ccc3c(c2)CC(N2CCN(C(=O)c4ccccc4)CC2)C3)c1-c1ccc(C(F)(F)F)cc1 (stereo not shown) shows melting point equal to 120 to 123 °C

The compound listed as Cc1cccc(C(=O)Nc2ccc3c(c2)CC(N2CCN(Cc4ccccn4)CC2)C3)c1-c1ccc(C(F)(F)F)cc1 (stereo not shown) shows melting point equal to 190 to 194 °C
